The next entries give measured HepSE_Combined Scores for Hepatotoxicity.

- Compound: "O=c1[nH]c2ccccc2n1C1CCN(CCCC(c2ccc(F)cc2)c2ccc(F)cc2)CC1 [PIMOZIDE]"
  HepSE_Combined Scores: 0
- Compound: "C[C@@H](c1ncncc1F)[C@](O)(Cn1cncn1)c1ccc(F)cc1F"
  HepSE_Combined Scores: 10
- Compound: "O=C(CO)[C@@H](O)[C@@H](O)COP(=O)(O)O"
  HepSE_Combined Scores: 0
- Compound: "CC=CC1=C(C(=O)O)N2C(=O)[C@@H](NC(=O)[C@H](N)c3ccc(O)cc3)[C@H]2SC1"
  HepSE_Combined Scores: 1
- Compound: "O=S(=O)([O-])CCS.[Na+]"
  HepSE_Combined Scores: 0
- Compound: "O=[N+]([O-])O[C@H]1CO[C@H]2[C@@H]1OC[C@H]2O[N+](=O)[O-] [ISOSORBIDE DINITRATE]"
  HepSE_Combined Scores: 0
- Compound: "C[C@H](/C=C/[C@H](C)C(C)(C)O)[C@H]1CC[C@H]2/C(=C/C=C3C[C@@H](O)C[C@H](O)C3)CCC[C@]12C"
  HepSE_Combined Scores: 0
- Compound: "O=[N+]([O-])O[C@@H]1CO[C@H]2[C@@H]1OC[C@@H]2O [ISOSORBIDE MONONITRATE]"
  HepSE_Combined Scores: 2
- Compound: "CN1CCN(C2=Nc3ccccc3Oc3ccc(Cl)cc32)CC1"
  HepSE_Combined Scores: 2
- Compound: "COC(=O)CCc1ccc(OCC(O)CNC(C)C)cc1 (stereo not given)"
  HepSE_Combined Scores: 0

###

System: Hepatotoxicity
Recorded measurements of HepSE_Combined Scores, one per entry

- Compound: "CC(C)NCC(O)c1cc(O)cc(O)c1 (stereo not given)"
  HepSE_Combined Scores: 0
- Compound: "CN(C)CCC=C1c2ccccc2COc2ccccc21 [DOXEPIN]"
  HepSE_Combined Scores: 1
- Compound: "O=C(O)CCc1nc(-c2ccccc2)c(-c2ccccc2)o1"
  HepSE_Combined Scores: 3
- Compound: "CCCN1C[C@H](CSC)C[C@@H]2c3cccc4[nH]cc(c34)C[C@H]21 [PERGOLIDE]"
  HepSE_Combined Scores: 6
- Compound: "NC(=O)C[S+]([O-])C(c1ccccc1)c1ccccc1 (stereo not given)"
  HepSE_Combined Scores: 0

###

The next entries give measured HepSE_hepatic failure for Hepatotoxicity.
Measured attribute: HepSE_hepatic failure

- Molecule: "CN(C)CCc1c[nH]c2ccc(C[C@H]3COC(=O)N3)cc12"
  Study target: "Hepatotoxicity"
  Val: 0
- Molecule: "CCOC(=O)C1=C(C)NC(C)=C(C(=O)OC)C1c1cccc(Cl)c1Cl (stereo not drawn)"
  Study target: "Hepatotoxicity"
  Val: 0
- Molecule: "Cc1ccc(S(=O)(=O)NC(=O)NN2CC3CCCC3C2)cc1 (stereo not drawn) [GLICLAZIDE]"
  Study target: "Hepatotoxicity"
  Val: 1

###

Tested on: Hepatotoxicity
Conditions: Liver

- Compound: "CCc1cc(C(N)=S)ccn1 [ETHIONAMIDE]"
  HepSE_jaundice: 1
- Compound: "Cl[C@H]1[C@H](Cl)[C@@H](Cl)[C@@H](Cl)[C@H](Cl)[C@H]1Cl"
  HepSE_jaundice: 0
- Compound: "N[C@@H]1C[C@H]1c1ccccc1.N[C@H]1C[C@@H]1c1ccccc1"
  HepSE_jaundice: 0
- Compound: "CCCCS(=O)(=O)N[C@@H](Cc1ccc(OCCCCC2CCNCC2)cc1)C(=O)O"
  HepSE_jaundice: 0
- Compound: "Cc1ccc(-c2cc(C(F)(F)F)nn2-c2ccc(S(N)(=O)=O)cc2)cc1"
  HepSE_jaundice: 1
